Value source: PubChem BioAssay (NCI)

Known TGI of a selection of compounds
System: COLO 205 colon
protocol.text: NCI tumour cell line growth inhibition, 48 h

compound	measurement.target	measured.metric	measured.value
NC(=O)NCCCC(NC(=O)OCCCCCCn1ccc(=O)[nH]c1=O)C(=O)O (configuration not stated)	COLO 205 colon	TGI	> 100 µM
O=C(Nc1ccc2[nH]c(C(=O)N3CC(CCl)c4c3cc([N+](=O)[O-])c3ccccc43)cc2c1)Nc1ccc2[nH]c(C(=O)N3CC(CCl)c4c3cc([N+](=O)[O-])c3ccccc43)cc2c1 (configuration not stated)	COLO 205 colon	TGI	> 100 µM
COC1CN(C)C(=Nc2cccc3ccccc23)S1 (configuration not stated)	COLO 205 colon	TGI	> 10 µM
CC1SCc2nc3ccccc3n21 (configuration not stated)	COLO 205 colon	TGI	> 100 µM
Oc1ccc(-c2nc3ccccc3s2)cc1CN(Cc1ccccn1)Cc1ccccn1	COLO 205 colon	TGI	15.2 µM
N#Cc1c(N2CCC(O)C2)c2ccccc2n2c1nc1ccccc12 (configuration not stated)	COLO 205 colon	TGI	> 100 µM

So what's the measured TGI for this one? [N-]=[N+]=NC(c1cn(C2CC(O)C(CO)O2)c(=O)[nH]c1=O)C(Cl)I (configuration not stated)
> 100 µM

###

Tested on: OVCAR-3 ovarian
protocol.text: NCI tumour cell line growth inhibition, 48 h; in the data active = GI50 below about 0.43 µM; inactive = the rest
Pick from YES = active, NO = inactive when you respond.

Here's what some known entries look like.
molecule	measurement.target	assigned.category
C[As](C)SCC(COC(=O)C(Cl)c1ccccc1)OC(=O)C(Cl)c1ccccc1 (stereo not drawn)	OVCAR-3 ovarian	YES
COc1ccccc1-c1cc(=O)c2cc3c(cc2[nH]1)OCO3	OVCAR-3 ovarian	NO

Please examine the following record next.
Test call, this molecule: O=C(Nc1ccncc1)C(=O)c1cn(S(=O)(=O)c2ccc(Cl)cc2)c2ccccc12
NO

###

Tested on: HL-60(TB) leukemia
protocol.text: NCI tumour cell line growth inhibition, 48 h
Known TGI of a selection of compounds

As a guide, the following entries are already answered.
compound	TGI
CCOC(=O)C1c2[nH]c3ccccc3c2CCN1C(=O)c1ccc(OC)o1 (centres undefined)	> 10 µM
C=CCN(C(=O)OC(C)(C)C)[C@H](C)C(=O)N[C@@H](C)C(=O)OC	> 100 µM
CC(C)NC(=O)OCc1c(CO)c2c(n1C)-c1ccccc1CC2	> 58.3 µM
C[n+]1c2cc(N)ccc2cc2ccc(N)cc21	9.76 µM [middle of 4 runs]
Cc1nnc(-c2cccc(-c3ccc(C(=O)NCC4CC4)cc3)c2)o1	> 25 µM
O=[P+](O)c1ccsc1	> 100 µM
CSc1nc(NC2OC(COC(C)=O)C(OC(C)=O)C(OC(C)=O)C2OC(C)=O)c2c(n1)OCC2=O (centres undefined)	> 100 µM
Cc1ccc(/C(O)=C/C(=O)C(=O)NC23CC4CC(CC(C4)C2)C3)cc1	> 10 µM

Let us move to another entry and its TGI.
So what's the measured TGI for this one? S=C(Nc1ccc(-c2nc3ccccc3[nH]2)cc1)Nc1ccc(-c2nc3ccccc3[nH]2)cc1
> 100 µM
